# Assay system: RNAP CH-σ (B. subtilis RpoC clamp-helix domain and full-length SigA) (Bacillus subtilis, UniProt P37871)
# Construct: RpoC clamp-helix domain 220-315 with SmBiT NanoLuc tag (N-terminal, pCU252); full-length SigA with LgBiT NanoLuc tag (C-terminal, pCU251); purified recombinant; tags kept; with RNA polymerase sigma factor SigA
# Test method notes: split-luciferase (NanoLuc) protein-protein interaction inhibition
Experimental endpoint: IC50 (µM)

{"columns": ["Compound", "Experimental endpoint", "Recorded number"],
 "data": [
  ["Nc1ccccc1Sc1ccc(C(=O)c2ccccc2C(=O)O)cc1[N+](=O)[O-] [C3-001]", "IC50", 6.4]
]}

###

Entries and their inhibition at 10 µM values follow.
# Assay system: RNAP CH-σ (B. subtilis RpoC clamp-helix domain and full-length SigA) (Bacillus subtilis)
# Construct: RpoC clamp-helix domain 220-315 with SmBiT NanoLuc tag (N-terminal, pCU252); full-length SigA with LgBiT NanoLuc tag (C-terminal, pCU251); purified recombinant; tags kept; with RNA polymerase sigma factor SigA
# Test method notes: split-luciferase (NanoLuc) protein-protein interaction inhibition
# Assay type: biochemical

{"columns": ["Compound", "inhibition at 10 µM"],
 "data": [
  ["Nc1ccc(Sc2ccc(C(=O)c3ccccc3C(=O)O)cc2[N+](=O)[O-])cc1", "69.1%"],
  ["Nc1ccccc1Sc1ccc(C(=O)c2ccccc2C(=O)O)cc1[N+](=O)[O-]", "62.2%"],
  ["Nc1cc(Cl)ccc1Sc1ccc(C(=O)c2ccccc2C(=O)O)cc1[N+](=O)[O-]", "60.5%"],
  ["Nc1cccc(Sc2ccc(C(=O)c3ccccc3C(=O)O)cc2[N+](=O)[O-])c1", "81.3%"],
  ["O=C(O)c1ccccc1C(=O)c1ccc(Sc2ccc(Cl)c(Cl)c2)c([N+](=O)[O-])c1", "81.7%"]
]}
